- SUBJECT OF TEST: human orexin-2 receptor (Homo sapiens (Human), UniProt O43614)
- Sequence (O43614 whole entry): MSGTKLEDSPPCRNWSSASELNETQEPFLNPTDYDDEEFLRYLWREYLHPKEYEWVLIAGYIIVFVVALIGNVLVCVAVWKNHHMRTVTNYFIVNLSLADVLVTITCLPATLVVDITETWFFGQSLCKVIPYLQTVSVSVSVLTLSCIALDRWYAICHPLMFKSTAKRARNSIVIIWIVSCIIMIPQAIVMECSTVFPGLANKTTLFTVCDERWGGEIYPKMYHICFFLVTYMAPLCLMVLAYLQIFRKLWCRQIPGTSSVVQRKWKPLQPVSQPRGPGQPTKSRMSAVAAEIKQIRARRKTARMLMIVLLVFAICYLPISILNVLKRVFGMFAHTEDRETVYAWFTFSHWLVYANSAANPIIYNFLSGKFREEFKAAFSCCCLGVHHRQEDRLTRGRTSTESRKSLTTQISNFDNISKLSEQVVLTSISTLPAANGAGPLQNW
- EXPERIMENT NOTES: In vitro assay: intracellular calcium measurements (FLIPR), antagonistic activity
- Format: cell-based
- TEST SETTINGS: CHO cells, 3 nM orexin-A, compound incubation time of 10 min; marked values are geometric means of n = 2-6; read-out: IC50 OX2
# maps each entry to its IC50
# output: bare number, implied unit nM

COc1cccc(OCC2CC2)c1C1CCCC(=O)N1Cc1ccc(OC(F)(F)F)cc1 (stereo not drawn) [Example 210] : 4140
COc1cccc(OC)c1C1CCCC(=O)N1Cc1cccc(Oc2ccccc2)c1 (stereo not drawn) [Example 179] : 42
CCOc1cccc(OC)c1C1CCCC(=O)N1Cc1ccc(OC(F)(F)F)cc1 (stereo not drawn) [Example 212] : 37

# IC50 (compound: COc1cccc(OC)c1C1CCC(C)C(=O)N1Cc1ccc(OC(F)(F)F)cc1 (stereo not drawn) [Example 216] ) is 894

The compound listed as COc1ccccc1C1CCCC(=O)N1Cc1ccc2ccccc2c1 (stereo not drawn) [Example 236] shows IC50 equal to 369

Documented IC50 of COc1cccc(C)c1C1CCCC(=O)N1Cc1ccc(OC(F)(F)F)cc1 (stereo not drawn) [Example 222] : 268

Value of measured IC50 for the entry COc1cccc(OC)c1C1CCCC(=O)N1Cc1ccc(OC(C)C)cc1 (stereo not drawn) [Example 206] : 16

Value of measured IC50 for the entry O=C1CCCC(c2c(F)cccc2F)N1Cc1ccc(OC(F)(F)F)cc1 (stereo not drawn) [Example 224] : 2470

IC50 in this record for CCOc1ccccc1C1CCC(=O)N1Cc1ccc(F)cc1 (stereo not drawn) [Example 194] : 669

* * *

- SUBJECT OF TEST: human orexin-2 receptor (Homo sapiens (Human), UniProt O43614)
- EXPERIMENT NOTES: In vitro assay: intracellular calcium measurements (FLIPR), antagonistic activity
- Type: cell-based
- TEST SETTINGS: CHO cells, 3 nM orexin-A, compound incubation time of 10 min; marked values are geometric means of n = 2-6; read-out: IC50 OX2
- Method: In Vitro Assay: Intracellular Calcium Measurements: […] Fluorescence is measured for each well at 1 second intervals, and the height of each fluorescence peak is compared to the height of the fluorescence peak induced by 3 nM orexin-A with vehicle in place of antagonist. […] The calculated IC50 values may fluctuate depending on the daily cellular assay performance. […]
pIC50: −log10 of the molar value.
Binary call on pIC50: criterion met from 7 upward, criterion not met beneath that.

See these solved cases before continuing.
CCOc1ccccc1C1CCCC(=O)N1Cc1ccc(OC(F)(F)F)cc1 (stereo not drawn) [Example 251] : criterion not met
COc1cccc(OC)c1C1CCCC(=O)N1Cc1cn2ccccc2n1 (stereo not drawn) [Example 242] : criterion not met
COc1cccc(OC)c1C1CC(C)(C)C(=O)N1Cc1ccc(OC(F)(F)F)cc1 (stereo not drawn) [Example 217] : criterion not met
COc1cccc(OC)c1C1CC(C)C(=O)N1Cc1ccnc(OC(F)F)c1 (stereo not drawn) [Example 202] : criterion not met

Please find the next compound below.
Textbook exercise: given the entry COc1cccc(OC)c1C1CCCC(=O)N1Cc1ccc(OC(F)(F)F)cc1 (stereo not drawn) [Example 156] , state whether its pIC50 is greater than or equal to 7.
criterion met
